- Test system: IL-1β
- protocol text: PBMC assay: inhibition of IL-1β release after LPS stimulation (MSD)
- Type: cell-based
- reported conditions: Homo sapiens, PBMC, 6 h, human PBMCs, 100 ng/ml LPS for 6 hrs, MSD, 96 well plates; read-out: IL1β IC50
reported endpoint: IC50

Known IC50 results, listed for orientation:
# compound, measured result
rows = [
    ("CC(O)c1nn(CC(=O)N[C@H]2C[C@@](C)(O)C2)c(=O)c2ccc(Br)cc12 (stereo partly shown)", "502 nM"),
    ("CC(C)c1nn(CC(=O)Nc2cnn(C)c(=O)c2)c(=O)c2ccc(C(F)(F)F)cc12", "7450 nM"),
    ("CC(C)c1nn(CC(=O)N[C@H]2CC[C@@H](O)CC2)c(=O)c2ccc(C(F)(F)F)cc12", "353 nM"),
]

Input line: Quick one: IC50 of "CC(C)c1nn(CC(=O)Nc2ccc3nccn3c2)c(=O)c2ccc(C(C)(C)F)cc12" ?
Output line: 144 nM

Input line: Try this compound next: "CC(C)c1ccc2c(=O)n(CC(=O)N[C@H]3C[C@@](C)(O)C3)nc(C(C)C)c2c1"
Output line: < 120 nM

Input line: Further, for "Cc1cn2nc(NC(=O)Cn3nc(C(C)C)c4cc(C(F)(F)F)ccc4c3=O)ccc2n1" ?
Output line: 444 nM

Input line: Would you mind doing "CC(C)c1nn(CC(=O)N[C@H]2CN(C3COC3)CC[C@H]2O)c(=O)c2ccc(C(F)(F)F)cc12" as well?
Output line: 1410 nM

Input line: Let us now turn to "Cc1nc2ccc(NC(=O)Cn3nc(C(C)C)c4cc(C(F)(F)F)ccc4c3=O)cn2n1"
Output line: 545 nM

Input line: Proceed to "CCc1nn(CC(=O)N[C@H]2CC[C@H](O)CC2)c(=O)c2ccc(Br)cc12"
Output line: 890 nM

Input line: Further, for "Cn1nc(NC(=O)Cn2nc(C(F)F)c3cc(Br)ccc3c2=O)ccc1=O" ?
Output line: 437 nM

Input line: Next compound up: "CC(C)c1nn(CC(=O)Nc2ccc(=O)n(C)n2)c(=O)c2ccc(C(C)(F)F)cc12"
Output line: 293 nM

Input line: Same lookup for "CC(C)c1nn(CC(=O)NC2CC(F)(F)C2)c(=O)c2ccc(C(F)(F)F)cc12" , please.
Output line: 8770 nM

Input line: And then "O=C(Cn1nc(C2(F)CC2)c2cc(C(F)(F)F)ccc2c1=O)Nc1ccc2nncn2c1" , what is it?
Output line: 4740 nM

====

- Tested on: IL-1β
- protocol text: PBMC assay: inhibition of IL-1β release after LPS stimulation (MSD)
- Format: cell-based
- reported conditions: Homo sapiens, PBMC, 6 h, human PBMCs, 100 ng/ml LPS for 6 hrs, MSD, 96 well plates; read-out: IL1β IC50
reported endpoint: IC50 (nM)
Give the value, in units of nM, as a plain number.

Worked set:
# compound, measurement units, measured result
rows = [
    ("O=C(Cn1nc(C2CC2)c2cc(Br)ccc2c1=O)Nc1ccc2nncn2n1 [X-1001]", "nM", 224),
    ("CC(c1nn(CC(=O)Nc2ccc3nncn3c2)c(=O)c2ccc(C(F)(F)F)cc12)C(F)(F)F (stereo not shown) [Final Cpd X59]", "nM", 561),
    ("CCN1CC[C@@H](O)[C@@H](NC(=O)Cn2nc(C(C)C)c3cc(C(F)(F)F)ccc3c2=O)C1 [Final Cpd X6]", "nM", 66),
]

Could you now look at the following compound, please?
Input line: So what does the record say about IC50 for CC(C)c1nn(CC(=O)Nc2ccc3nnc(C(F)(F)F)n3n2)c(=O)c2ccc(C(F)(F)F)cc12 [Final Cpd X87] ?
Output line: 916
